Data origin: patent US20210300943A1

- Test Target: recombinant human Meningioma Expressed Antigen 5 (MGEA5), also referred to as O-GlcNAcase (OGA) (Homo sapiens, UniProt O60502)
- Construct: Full length OGA enzyme was purchased at OnGene (cat #TP322411); purchased OnGene (so in the source)
- Sequence (O60502 1-916): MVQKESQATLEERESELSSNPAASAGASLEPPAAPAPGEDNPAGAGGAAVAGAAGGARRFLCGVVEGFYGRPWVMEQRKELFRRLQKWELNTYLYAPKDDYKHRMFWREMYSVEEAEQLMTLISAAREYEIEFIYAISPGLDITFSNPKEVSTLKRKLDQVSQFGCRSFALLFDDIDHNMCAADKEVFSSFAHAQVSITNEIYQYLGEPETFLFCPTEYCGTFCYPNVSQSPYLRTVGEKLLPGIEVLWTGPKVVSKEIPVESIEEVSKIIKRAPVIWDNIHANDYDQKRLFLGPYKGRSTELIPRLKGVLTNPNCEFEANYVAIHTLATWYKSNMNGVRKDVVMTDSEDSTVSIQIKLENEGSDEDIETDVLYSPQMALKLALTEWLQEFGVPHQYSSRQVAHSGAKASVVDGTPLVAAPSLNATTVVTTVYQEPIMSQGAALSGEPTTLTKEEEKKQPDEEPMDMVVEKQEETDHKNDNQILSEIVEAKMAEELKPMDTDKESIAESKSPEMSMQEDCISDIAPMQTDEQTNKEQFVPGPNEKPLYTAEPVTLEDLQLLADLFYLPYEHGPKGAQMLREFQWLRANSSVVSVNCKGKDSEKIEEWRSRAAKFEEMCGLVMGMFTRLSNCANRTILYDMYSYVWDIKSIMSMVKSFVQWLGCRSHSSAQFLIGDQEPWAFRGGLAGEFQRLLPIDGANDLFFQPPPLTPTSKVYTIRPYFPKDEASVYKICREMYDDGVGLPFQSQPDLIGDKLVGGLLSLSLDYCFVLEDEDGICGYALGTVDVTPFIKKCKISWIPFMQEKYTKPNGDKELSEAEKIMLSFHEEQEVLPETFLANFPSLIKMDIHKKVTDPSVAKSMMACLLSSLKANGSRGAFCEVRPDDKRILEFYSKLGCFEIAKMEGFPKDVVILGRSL
- Test Details: OGA biochemical assay (inhibition of FM-GlcNAc hydrolysis, fluorescence)
- Condition: maximal effect, read-out: Enzymatic Emax (%)
Property Name: Emax (%)
Expressed in %, but write only the number.

Known results for compounds:
- Cc1cc(C[C@H]2CCCN(C(C)c3cnc4c(c3)OCCO4)C2)cc(C)n1 (single isomer, unassigned) [Product 132]: 103
- COc1cc(NC[C@H]2CCCN(C(C)c3nc4c(cc3F)OCCO4)C2)cc(C)n1 (stereo partly drawn): 99
- Cc1cc(C2CCCN(C(C)c3ccc4c(n3)OCCO4)C2)c(F)c(C)n1 (stereo not drawn): 100
- Cc1cc(C[C@H]2CCCN(Cc3ccc4c(n3)OCCO4)C2)cc(C)n1: 101
- Cc1cc(C[C@H]2CCCN(C(C)c3cnc4c(c3)OCC4)C2)cc(C)n1 (mixture of isomers): 101
- Cc1cc(OC[C@H]2CCCN(C(C)c3nc4c(cc3F)OCCO4)C2)cc(C)n1 (stereo partly drawn) [Product 152]: 102

Inquiry: Hello, please tell me recorded Emax for this one: COC1CCN(C(C)c2ccc3c(n2)OCCO3)CC1Cc1cc(C)nc(C)c1 (stereo not drawn)
Reply text: 99

Inquiry: Look up and state reported Emax for Cc1cc(CC2(F)CCCN([C@@H](C)c3nc4c(cc3F)OCCO4)C2)cc(C)n1 (single isomer, unassigned)
Reply text: 92

Inquiry: Tell me measured Emax for Cc1cc(OC[C@H]2CCCN([C@@H](C)c3ccc4c(n3)OCCO4)C2)cc(C)n1 (single isomer, unassigned) please.
Reply text: 72

Inquiry: Identify measured Emax associated with Cc1cc(C[C@H]2CCCN(C(C)c3cnc4c(c3)OCCN4)C2)cc(C)n1 (single isomer, unassigned) [Product 51]
Reply text: 101

Inquiry: Tell us which Emax value is on record for Cc1cc(C2CCCN(C(C)c3ccc4c(n3)OCCO4)C2)cc(C(F)(F)F)n1 (stereo not drawn)
Reply text: 100

Inquiry: Item Cc1cc(CO[C@H]2CCCN(C(C)c3nc4c(cc3F)OCCO4)C2)cc(C)n1 (single isomer, unassigned) [Product 169] : provide Emax
Reply text: 85

Inquiry: Look up Emax of Cc1cc(C2CCCN(C(C)c3ccc4c(n3)OCCO4)C2)cc(C(F)F)n1 (stereo not drawn) and report it.
Reply text: 102

Inquiry: Give the reported Emax for this compound. COc1cc(OC[C@H]2CCCN([C@H](C)c3ccc4c(n3)OCCO4)C2)cc(C)n1 (racemic) [Product 110]
Reply text: 102

Inquiry: Note down Emax recorded for Cc1cc(NC[C@H]2CCCN(C(C)c3ccc4c(n3)OCCO4)C2)nc(C)n1 (stereo partly drawn)
Reply text: 101

Inquiry: Using the record for Cc1cc([C@@H]2CCCN(C(C)c3nc4c(cc3F)OCCO4)C2)cc(C)n1 (single isomer, unassigned) , state its measured Emax.
Reply text: 100

Inquiry: Answer with the recorded Emax of Cc1cc([C@H]2CCCN([C@H](C)c3ccc4c(c3)OCC4)C2)cc(C)n1 only.
Reply text: 97

Inquiry: Please supply the value of reported Emax for the item Cc1cc(C[C@H]2CCCN(C(C)c3cnc4c(c3)OCCN4C)C2)cc(C)n1 (mixture of isomers)
Reply text: 102

Inquiry: Quote Emax reported for Cc1cc([C@H]2CCCN([C@H](C)c3ccc4c(n3)OCCO4)C2)cc(C)n1 (single isomer, unassigned) please.
Reply text: 102

Inquiry: Name the recorded Emax of the compound listed here: Cc1cc(C[C@H]2CCCN(C(C)c3ccc4c(n3)OCCO4)C2)cc(C)n1 (single isomer, unassigned) [Product 45]
Reply text: 98

Inquiry: Indicate the recorded Emax value for this compound: Cc1cc(C[C@H]2CCCN(C(C)c3cnc4c(c3)OCCN4)C2)cc(C)n1 (mixture of isomers) [Product 50]
Reply text: 103

Inquiry: Tell us which Emax value is on record for COc1cc(OC[C@H]2CCCN([C@H](C)c3ccc4c(n3)OCCO4)C2)cc(C)n1 (single isomer, unassigned) [Product 183]
Reply text: 99

Inquiry: Tell me Emax reported for Cc1cc(NCC2CCCN(C(C)c3ccc4c(n3)OCCO4)C2)cc(C(F)(F)F)n1 (single isomer, unassigned)
Reply text: 102

Inquiry: Could you please provide reported Emax for Cc1cc(C2CCCN(C(C)c3nc4c(cc3F)OCCO4)C2)cc(C)n1 (stereo not drawn) ? Thanks!
Reply text: 102

Inquiry: Give reported Emax value for COc1cc(OC2CCCN(C(C)c3ccc4c(n3)OCCO4)C2)cc(C)n1 (stereo not drawn)
Reply text: 100

Inquiry: Identify the reported Emax for the following entry. Cc1cc(OC[C@H]2CCCN(C(C)c3ccc4c(n3)OCCO4)C2)cc(C)n1 (mixture of isomers) [Product 19]
Reply text: 102

Inquiry: Dear colleague, please send me the reported Emax for Cc1cc(CO[C@H]2CCCN(C(C)c3nc4c(cc3F)OCCO4)C2)cc(C)n1 (stereo partly drawn) [Product 168] when you can.
Reply text: 99

Inquiry: Report Emax, nothing else, for this compound: Cc1cc(OC[C@@H]2CCCN(C(C)c3cnc4c(c3)OCCN4)C2)cc(C)n1 (stereo partly drawn)
Reply text: 99

Inquiry: For the compound COc1cc(CN[C@H]2CCCN(C(C)c3ccc4c(n3)OCCO4)C2)cc(C)n1 (stereo partly drawn) , give its measured Emax value.
Reply text: 94

Inquiry: Please give measured Emax of the following entry: COc1cc(NC[C@@H]2CCCN(C(C)c3ccc4c(n3)OCCO4)C2)cc(C)n1 (single isomer, unassigned) [Product 28]
Reply text: 99
